Tested on: TAB165
Assay: qHTS profiling for inhibitors of Plasmodium falciparum proliferation (AID 504749); further: nearly all actives have a fitted effect of over 60% in size
Settings: P. falciparum in erythrocytes, SYBR Green DNA, 72 h; series mostly up to 28.7 µM
Results filed as inconclusive are left out. Calls of active or inactive are those of the source. The call rests on the fitted dose curve; in most records, active means well fitted inhibition curve with a large enough effect; inconclusive means small, poorly fitted or top-dose-only effect; inactive means flat fitted curve, though single readings scatter.
Classes used: TRUE = active, FALSE = inactive

• CC(=O)OCC(=O)[C@@H]1CC[C@H]2[C@H]3CC[C@H]4C[C@@H](O)CC[C@]4(C)[C@@H]3C(=O)C[C@@]12C = FALSE
• CN(C)[C@@H]1C(=O)C(C(N)=O)=C(O)[C@]2(O)C(=O)C3=C(O)c4c(O)ccc(Cl)c4[C@](C)(O)[C@H]3C[C@@H]12 = FALSE
• CCN[C@]1(c2cccs2)CCCCC1=O = FALSE
• CNC(C)[C@@H](O)c1ccccc1 (some centres not stated) = FALSE
• O=[As]O[As]=O (configuration not stated) = TRUE
• C[C@@H]1O[C@H](O[C@@H]2C=C3CC[C@H]4[C@@H](CC[C@]5(C)[C@@H](c6ccc(=O)oc6)CC[C@]45O)[C@@]3(C)CC2)[C@@H](O)[C@H](O)[C@@H]1O = FALSE
• C=CC1CN2CCC1CC2C(OC(=O)OCC)c1ccnc2ccc(OC)cc12 (configuration not stated) = TRUE
• C[N+]1(C)[C@@H]2CC[C@H]1CC(OC(=O)[C@@H](CO)c1ccccc1)C2 (some centres not stated) = FALSE
• [Hg+][c]1ccccc1 = FALSE
• C[C@@]12CC[C@H]3[C@@H](CC[C@@H]4C[C@H]5S[C@H]5C[C@]43C)[C@H]1CC[C@H]2O = FALSE
• O=C1C=C2C=CC3C[C@@]2(O1)C1CCCCN31 (some centres not stated) = TRUE
• CC([C@H](O)c1ccccc1)N(C)C (some centres not stated) = FALSE
• COc1cc2c(cc1OC)[C@@]13CCN4CC5=CCOC6CC(=O)N2C1[C@H]6[C@@H]5C[C@@H]43 (some centres not stated) = FALSE
• O=c1ccc2cc(O[C@H]3O[C@@H](CO)[C@@H](O)[C@@H](O)[C@@H]3O)c(O)cc2o1 = FALSE
• CC(C)c1c(CN(C)[C@@H](C)Cc2ccccc2)n(C)n(-c2ccccc2)c1=O = FALSE
• COc1cc(N)c(Cl)cc1C(=O)N[C@@H]1CN2CCC1CC2 = FALSE
• C[N+]1([O-])[C@@H]2CC[C@H]1CC(OC(=O)[C@@H](CO)c1ccccc1)C2 (some centres not stated) = FALSE

====

System: CP256
Assay: qHTS profiling for inhibitors of Plasmodium falciparum proliferation (AID 504749); further: nearly all actives have a fitted effect of over 60% in size
Conditions: P. falciparum in erythrocytes, SYBR Green DNA, 72 h; series mostly up to 28.7 µM
Results filed as inconclusive are left out. Active and inactive are the calls of the source. Calls come from the whole dose curve; as a rule, active = well fitted inhibition curve with a large enough effect; inconclusive = small, poorly fitted or top-dose-only effect; inactive = flat fitted curve, though single readings scatter.
Classes used: YES (active), NO (inactive)

* O=[As]O[As]=O (centres undefined) | YES
* C[C@]12CC[C@H](O)C[C@H]1CCC1C2CC[C@]2(C)[C@@H](c3ccc(=O)oc3)C[C@H]3O[C@]132 (some centres undefined) | NO
* C#CCN(C)[C@@H](C)Cc1ccccc1 | NO
* CC[C@]1(c2cccc(O)c2)CCCCN(C)C1 | NO
* N[C@H]1C[C@H]1c1ccccc1 | NO
* CC(=O)O[C@H]1CC[C@@]2(C)C(=CC[C@@H]3[C@H]2CC[C@]2(C)C(=O)CC[C@H]32)C1 | NO
* CCNC[C@H](O)c1cccc(O)c1 | NO
* C[C@H](NC(C)(C)C)C(=O)c1cccc(Cl)c1 | NO
* COc1ccc2c(c1OC)CN1CCc3cc4c(cc3[C@H]1C2)OCO4 | YES
* CNC[C@H](O)c1ccc(O)cc1 | NO
* C[N+]1([O-])[C@@H]2CC(OC(=O)[C@@H](CO)c3ccccc3)C[C@@H]1[C@H]1O[C@H]12 (some centres undefined) | NO
* CC(=O)OC1C[C@H](O[C@@H]2C(O)C[C@H](O[C@@H]3C(O)C[C@@H](OC4CC[C@]5(C)C(CCC6C5CC(O)[C@@]5(C)C(C7=CC(=O)OC7)CC[C@@]65O)C4)OC3C)OC2C)O[C@H](C)[C@H]1O[C@H]1OC(CO)C(O)C(O)C1O (some centres undefined) | NO
* ClC1=C(Cl)C2(Cl)C3C4CC(C5OC45)C3C1(Cl)C2(Cl)Cl (centres undefined) | NO
* CNc1ccc(C(=O)CC(O)CCC(C)C2OC(=O)CC(O)CC(=O)CC(O)CC(O)CC(O)CC(O)CC3(O)CC(O)C(C(=O)OC)C(CC(O[C@@H]4OC(C)C(O)C(N)C4O)/C=C/C=C/C=C/C=C/C=C/C=C/C=C/C2C)O3)cc1 (some centres undefined) | NO
* CNC(C)[C@@H](O)c1ccccc1 (some centres undefined) | NO
* CN(C)C(=O)Oc1cc(OC(=O)N(C)C)cc([C@@H](O)CNC(C)(C)C)c1 | NO
* Oc1ccc2c3c1O[C@H]1[C@@H](O)CC[C@@]4(O)C(C2)N(CC2CCC2)CCC314 (some centres undefined) | NO
* C[N+]1([O-])[C@@H]2CC[C@H]1CC(OC(=O)[C@@H](CO)c1ccccc1)C2 (some centres undefined) | NO
* COc1cc(N)c(Cl)cc1C(=O)N[C@@H]1CN2CCC1CC2 | NO

Hey, just so you know, these numbers are from PubChem BioAssay (NCATS).
